Test: BSK_SAg_SRB: Viability Assessment in the BioMAP Diversity Plus: SAg Assay (AID 2283096);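 note: cells read one day after compound addition; hits may be either gain or loss of signal compared with DMSO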
Conditions: primary human HUVEC with PBMC
Calls of active or inactive are those of the source. Rule for the calls: active = hit-call score of the fitted dose curve at least 0.9, where 1 is the maximum; inactive = score below 0.9.
Respond with a class label; see yes = active, no = inactive

Below are worked cases with known answers.
{"compound": "Oc1ccccc1-c1ccccc1", "class.name": "no"}
{"compound": "O=C(O)c1nc(Cl)ccc1Cl", "class.name": "no"}
{"compound": "CC(Oc1ccc(Cl)cc1Cl)C(=O)O (centres undefined)", "class.name": "no"}
{"compound": "CC1=C(C(=O)Nc2ccccc2)SCCO1", "class.name": "no"}
{"compound": "COc1ccc(C(c2ccc(OC)cc2)C(Cl)(Cl)Cl)cc1", "class.name": "yes"}

# fetch the recorded call for CNC(=S)S here yes

# fetch the recorded call for COP(N)(=O)SC (centres undefined) here no

# fetch the recorded call for COc1nc(C)nc(NC(=O)NS(=O)(=O)c2ccccc2CCC(F)(F)F)n1 here no

# fetch the recorded call for COC(=O)C=C(C)OP(=O)(OC)OC here no

Reference source: PubChem BioAssay (EPA / NIEHS)
